- test details: wn = mass fraction of the nth substance listed
- measurement parameters: 313.15 K, Pendant drop shape, w1 = 0.1
measured metric: surface tension liquid-gas (mN/m)

[I-].[Na+] [sodium iodide] + O: 70.81
[Br-].[Na+] [sodium bromide] + O: 72
[I-].[K+] [potassium iodide] + O: 76.83
[Cl-].[Na+] [sodium chloride] + O: 72.81
[Br-].[K+] [potassium bromide] + O: 71.44
[Cl-].[K+] [potassium chloride] + O: 72.24

---

- test details: wn = mass fraction of the nth substance listed
- measurement parameters: 293.15 K, Pendant drop shape, w1 = 0.1
measured metric: surface tension liquid-gas (mN/m)

[I-].[Na+] [sodium iodide] + O: 73.6
[Cl-].[K+] [potassium chloride] + O: 75.13
[Br-].[Na+] [sodium bromide] + O: 75.5
[Cl-].[Na+] [sodium chloride] + O: 75.6
[I-].[K+] [potassium iodide] + O: 79.11
[Br-].[K+] [potassium bromide] + O: 74.51

---

- test details: wn = mass fraction of the nth substance listed
- measurement parameters: 293.15 K, Pendant drop shape, w1 = 0.15
measured metric: surface tension liquid-gas (mN/m)

[Cl-].[Na+] [sodium chloride] + O: 77.52
[Br-].[Na+] [sodium bromide] + O: 76.51
[Br-].[K+] [potassium bromide] + O: 74.9
[Cl-].[K+] [potassium chloride] + O: 76.15
[I-].[Na+] [sodium iodide] + O: 74.17

---

- test details: wn = mass fraction of the nth substance listed
- measurement parameters: 313.15 K, Pendant drop shape, w1 = 0.25
measured metric: surface tension liquid-gas (mN/m)

[I-].[Na+] [sodium iodide] + O: 72.45
[Br-].[Na+] [sodium bromide] + O: 75.68
[Br-].[K+] [potassium bromide] + O: 73.39
[Cl-].[Na+] [sodium chloride] + O: 79.7

---

- test details: wn = mass fraction of the nth substance listed
- measurement parameters: 323.15 K, Pendant drop shape, w1 = 0.05
measured metric: surface tension liquid-gas (mN/m)

[Br-].[K+] [potassium bromide] + O: 69.14
[I-].[K+] [potassium iodide] + O: 71.47
[I-].[Na+] [sodium iodide] + O: 68.78
[Br-].[Na+] [sodium bromide] + O: 69.07
[Cl-].[Na+] [sodium chloride] + O: 69.91
[Cl-].[K+] [potassium chloride] + O: 69.17

---

- test details: wn = mass fraction of the nth substance listed
- measurement parameters: 323.15 K, Pendant drop shape, w1 = 0.1
measured metric: surface tension liquid-gas (mN/m)

[I-].[K+] [potassium iodide] + O: 75.66
[Br-].[Na+] [sodium bromide] + O: 70
[I-].[Na+] [sodium iodide] + O: 69.34
[Br-].[K+] [potassium bromide] + O: 69.86
[Cl-].[K+] [potassium chloride] + O: 70.49
[Cl-].[Na+] [sodium chloride] + O: 71.32

---

- test details: wn = mass fraction of the nth substance listed
- measurement parameters: 313.15 K, Pendant drop shape, w1 = 0.05
measured metric: surface tension liquid-gas (mN/m)

[I-].[Na+] [sodium iodide] + O: 70.23
[Br-].[K+] [potassium bromide] + O: 70.85
[Br-].[Na+] [sodium bromide] + O: 70.75
[I-].[K+] [potassium iodide] + O: 72.7
[Cl-].[K+] [potassium chloride] + O: 71.05
[Cl-].[Na+] [sodium chloride] + O: 71.12
